B1: glmS ribozyme (parent)
chain: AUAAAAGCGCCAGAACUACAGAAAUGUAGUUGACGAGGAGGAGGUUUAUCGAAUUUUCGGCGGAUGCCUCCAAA

variants of: B1; test: self-cleavage kobs at 160 uM GlcN6P; higher = faster cleavage; RNA array; settings: with glucosamine-6-phosphate
Fewer inactive variants are shown than the library holds.
quantity-name: self-cleavage kobs at 160 uM GlcN6P

[
  {
    "sequence-data": "AUAAAAGCGCCAGACCUACAGAAAUGUAGUUGACGAGGAGGAGGUUUAUCGACUUUUCGGCGGAUGCUUCCAAA [A15C A53C C68U]",
    "obs-value": "< 1e-05 s⁻¹"
  },
  {
    "sequence-data": "AUAAAAGCGCCAGAUCUACAGAAAUGUAGUUGACGAGUAGGAGGUUUAUCGAAUUUUCUGCGGAUGCCUCCAAA [A15U G38U G59U]",
    "obs-value": "< 1e-05 s⁻¹"
  },
  {
    "sequence-data": "AUAAAAGCGCCAGAAUUACAGAAAUGUAGUUGGAGAGGGGGAGGUUUAUCGAAUUUUCGGCGGAUGCCUCCAAA [C16U A33G C34A A39G]",
    "obs-value": "< 1e-05 s⁻¹"
  },
  {
    "sequence-data": "AUAAAAGCGCCAGAACUACAGAAAUGUAGUUGACGAGGAGGGGGUUUAUCCAAUUUUCGUCGGAUGCCUCCAAA [A42G G51C G60U]",
    "obs-value": "< 1e-05 s⁻¹"
  },
  {
    "sequence-data": "AUAAAAGCGCCAGAACUACAGAAAUGUAGCUGCCGAGGAGGAGGUUUAUCGAAUUUUCGGCGGAUGCCUCCAAA [U30C A33C]",
    "obs-value": "< 1e-05 s⁻¹"
  }
]

Could I get self-cleavage kobs at 160 uM GlcN6P for every one of these entries?
1. AUAAAAGCGCCAGAACUACAGAAAUGUAGUAGAAGAGGAGGAGGUUUAUCGAAUAUUCGGCGGAUGGCUCCAAA [U31A C34A U55A C67G]
2. AUAAAAGCGCCAGAACUACAGAAAUGUAGUUGGCGAGGAGGAGGUUUCUCGGAUUUUCGGCGGAUGCCUCCAAA [A33G A48C A52G]
3. AUAAAAGCGCCAGAACUACAGAAAUGUAGAUGACCAGGAGGAGGUUUAUCGAAUUUUCGGCGGAUGCCUCCAAA [U30A G35C]
4. AUAAAAGCGCCAGAACUACAGAAAUGUAGUUGACGAGGAGGAGGUUUAUCCAGUUUUCGGCGGAUGCCUCCAAA [G51C A53G]
5. AUAAAAGCGCCAGAACUACAGAAAUGUAGUCGACGAGGAGGAGGUUUAUCGAAUUUUAGGCGGCUGCCUCCAAA [U31C C58A A64C]
6. AUAAAACCGCCAGAACUACAGAAAUGUAGUUGACGAGGAAGAGGUUUAUCGAAUUUUCGGCGGAUGCCUCCAAA [G7C G40A]
7. AUAAAAGCGCCAGAACUACAGAAAUGUAGUUGACGAGGAGGGGCUUUAUCGAAUUAUCGGCGGAUGCCUUCAAA [A42G G44C U56A C70U]
8. AUAAAAGCGCCAGAACUACAGAAAUGUAGUUGACGUGGAGGAAGUUUAUCGUAUUUUCGGCGAAUGACUCCAAA [A36U G43A A52U G63A C67A]

**Result**
1. < 1e-05 s⁻¹
2. < 1e-05 s⁻¹
3. < 1e-05 s⁻¹
4. < 1e-05 s⁻¹
5. < 1e-05 s⁻¹
6. < 1e-05 s⁻¹
7. < 1e-05 s⁻¹
8. < 1e-05 s⁻¹

Could I get self-cleavage kobs at 160 uM GlcN6P for every one of these entries?
1. AUAAAAGCGCGAGAACUACAGAAAUGUAGUUGACGAGGAGGAGGUUUAGCGAAUUUCCGGCGGAUGCCUCCAAA [C11G U49G U57C]
2. AUAAAAGUGCCAGAACUACAGAAAUGUAGUUAACGAGGAGUAGGUUUAUCGAAUUUUCGGCGGAUGCCUCCAAA [C8U G32A G41U]
3. AUAAAAGCGCCAGAACUACAGAAAUGUAGUUGACGAGGAGGAGGUAUAUCGAAUUUUCGGUGGAUGCCUCCAAA [U46A C61U]

**Result**
< 1e-05 s⁻¹
< 1e-05 s⁻¹
< 1e-05 s⁻¹
